- Protocol Description: qHTS for induction of synthetic lethality in tumor cells producing 2HG: qHTS for the HT-1080-IDH1KD cell line
- Conditions Used: HT-1080 IDH1 knockdown viability, ATP luminescence, 48 h; series mostly up to 46.1 µM
The whole screen tested about 360,000 compounds, of which about 7,500 (2.1%) were called active. Another 8% or so got no clear call; they are omitted. Calls follow the shape of the dose curve; as a rule, active = well fitted cell-killing curve with a large enough effect; inconclusive = small, poorly fitted or top-dose-only effect, or effect the other way, or another doubt; inactive = no such curve, though single readings can be large or run the other way. The list comes from a sample in which actives are over-represented; it also holds close analogues and randomly drawn compounds.
Returns: one label drawn from Yes for active, No for inactive

Before answering, review these 2 worked examples.
Compound | Label Value
Cc1cn([C@H]2C[C@H](O)[C@@H](/C=C/C(=O)NCCCc3ccccc3)O2)c(=O)[nH]c1=O | No
CC(C)Oc1cc(F)ccc1-c1cc(C(=O)Nc2ccc(F)cc2)[nH]n1 | No

GET /call?item= CCOc1c(OC)cc(C2C(C#N)=C(N)Oc3n[nH]c(-c4ccncc4)c32)cc1OC (stereo not given) returns the recorded outcome of this test. No

Could you kindly confirm the outcome this assay logged for CC(C)(C(=O)N1CCC1(C)C(=O)NS(=O)(=O)c1ccc(Br)cc1)c1ccccc1 (stereo not given) ? No

Test call for this compound, please: COc1cccc(-n2c(SCC(=O)NC3CCS(=O)(=O)C3)nc3ccccc3c2=O)c1 (stereo not given) No

What did the test return for "COc1ccc([C@H]2N[C@]3(CCCN(CC4CCCCC4)C3=O)[C@H]3C(=O)N(C)C(=O)[C@@H]23)cc1" ? No

Per the assay record, what outcome was assigned to "Cc1ccc(C(=O)Nc2ncccc2C)cc1S(=O)(=O)N1CCOCC1" ? No

Given COc1ccc(CN2CCC(C)(Oc3cccc(F)c3)C2)c2ccccc12 (stereo not given) , state the outcome it received in this test. No

Test call, this compound: "COCCCn1c(=O)/c(=C/c2ccccc2OC(C)C)s/c1=C(\C#N)C(=O)Nc1ccc(C(=O)O)cc1" No

====

- Protocol Description: qHTS for induction of synthetic lethality in tumor cells producing 2HG: qHTS for the HT-1080-IDH1KD cell line
- Conditions Used: HT-1080 IDH1 knockdown viability, ATP luminescence, 48 h; series mostly up to 46.1 µM
Among all 360,000 compounds or so, about 7,500 (2.1%) were called active. Not shown: some 8% with an inconclusive outcome. Calls follow the shape of the dose curve; as a rule, active = well fitted cell-killing curve with a large enough effect; inconclusive = small, poorly fitted or top-dose-only effect, or effect the other way, or another doubt; inactive = no such curve, though single readings can be large or run the other way. Shown is part of a subset that was picked to be rich in actives.
Select the correct class. Options are active, inactive and nothing else.

Solved entries (count: 5):
Compound | Label Value
Cc1ccc(-c2nc3ccccn3c2Nc2ccc(F)cc2)o1 | inactive
Cc1cccc(-n2cc(CN3CCN(C(=O)c4ncn[nH]4)CC3)c(-c3cccc(F)c3)n2)c1 | inactive
C[C@@H]1CN([C@H](C)CO)C(=O)CCCn2cc(nn2)CO[C@H]1CN(C)S(=O)(=O)c1ccc(Oc2ccccc2)nc1 | inactive
O=C(NCCc1cccc(F)c1)C1CC(O)CN1C(=O)Nc1ccccc1 (centres undefined) | inactive
CC1(C(=O)NS(=O)(=O)c2ccccc2)CCN1C(=O)C1CCCCC1 (centres undefined) | inactive

Hey, what did the test say about "CN(C)c1ccc(Nc2c3c4c(cccc4n(C)c2=O)C(=O)c2ccccc2-3)cc1" ? active

Fill in: this test's call for Cc1ccc(S(=O)(=O)N2CC3C(=O)C[C@@H](c4ccccc4Cl)N(S(=O)(=O)c4ccc(C)cc4)C3CC2c2ccccc2)cc1 (some centres undefined) is ___ inactive

Record request — test call for "CCOC(=O)c1c(C)[nH]c2c1-c1ccccc1C(=O)C2=O" active

Please indicate how the test categorized "CCOC(=O)c1ccccc1OC(=O)Oc1ccccc1C(=O)OCC" . inactive

====

- Protocol Description: qHTS for induction of synthetic lethality in tumor cells producing 2HG: qHTS for the HT-1080-IDH1KD cell line
- Conditions Used: HT-1080 IDH1 knockdown viability, ATP luminescence, 48 h; series mostly up to 46.1 µM
Out of some 360,000 compounds screened, about 7,500 (2.1%) were called active. Another 8% or so got no clear call; they are omitted. Calls follow the shape of the dose curve; as a rule, active = well fitted cell-killing curve with a large enough effect; inconclusive = small, poorly fitted or top-dose-only effect, or effect the other way, or another doubt; inactive = no such curve, though single readings can be large or run the other way. The entries come from a sample that favours actives as a whole.
Respond with a class label; see active, inactive

Use the examples below as a reference point.
Compound | Label Value
COc1ccc(NC(=O)C[C@H]2C(=O)N(CCc3ccccc3)C[C@@H]2C)cc1 | inactive
COc1ccc(CNS(=O)(=O)c2cc(-c3cc(C)no3)ccc2C(C)C)cc1 | active
COc1ccccc1-c1n[nH]nc1C1=CC(=O)CC(C)(C)C1 | inactive
CC(C)C1Cc2[nH][nH]c(=O)c2C(c2ccc(Cl)cc2)O1 (stereo not given) | inactive

Outcome? "Cc1cc(-c2ccc(C)c(S(=O)(=O)NCCCN(Cc3ccccc3)C(C)C)c2)on1" inactive

====

- Protocol Description: qHTS for induction of synthetic lethality in tumor cells producing 2HG: qHTS for the HT-1080-IDH1KD cell line
- Conditions Used: HT-1080 IDH1 knockdown viability, ATP luminescence, 48 h; series mostly up to 46.1 µM
Out of some 360,000 compounds screened, about 7,500 (2.1%) were called active. Inconclusive results (about 8%) are left out. The call rests on the fitted dose curve; in most records, active means well fitted cell-killing curve with a large enough effect; inconclusive means small, poorly fitted or top-dose-only effect, or effect the other way, or another doubt; inactive means no such curve, though single readings can be large or run the other way. This is one part of a sample in which actives are shown more often than they occur.
Pick one: active, inactive

Reference set, count: 3
Molecule | Label Value
Cc1cc(Br)ccc1NC(=O)CCCOc1cc(=O)n(C)c2ccccc12 | inactive
Cc1cccc(-c2nc(Nc3ccc(O)cc3)c3ccccc3n2)c1 | active
Cc1ccc(S(=O)(=O)NN=C2CC(C)(C)CC(=O)C2(C)C)cc1 | inactive

Short answer needed: outcome of this test for CCc1ccccc1NC(=O)[C@@H]1CCC(=O)N1C1OC(=O)c2c1ccc(OC)c2OC (stereo not given in full) ? inactive

Record lookup: outcome of this test for "Oc1ccc(-c2nnc(Nc3ccccc3)c3ccccc23)cc1" ? inactive

What did the test return for "COc1ccc(-c2nc3ccccc3c(=O)n2CCc2ccc(O)cc2)cc1" ? inactive

Per the assay record, what outcome was assigned to Cc1ccc(-c2csc(NC3OC(=O)c4ccccc43)n2)cc1 (stereo not given) ? active

What did this assay record as the result for "CCOC(=O)[C@]12CCCC=C1N(CCC1=CCCCC1)C(=O)[C@H](CC(=O)N1CCSCC1)C2" ? inactive

Recorded call for "COc1ccc(COC[C@H](CC(C)C)N2CCN(C(=O)c3cccc(C(F)(F)F)c3)CCC2=O)cc1" ? inactive

Short answer needed: outcome of this test for "C[C@H](CO)N1C[C@H](C)[C@@H](CN(C)S(=O)(=O)c2ccc(F)cc2)OCc2cnnn2CCCC1=O" ? inactive

====

- Protocol Description: qHTS for induction of synthetic lethality in tumor cells producing 2HG: qHTS for the HT-1080-IDH1KD cell line
- Conditions Used: HT-1080 IDH1 knockdown viability, ATP luminescence, 48 h; series mostly up to 46.1 µM
In all, about 360,000 compounds went through this assay and about 7,500 (2.1%) were called active. About 8% were inconclusive and are not listed. Calls follow the shape of the dose curve; as a rule, active = well fitted cell-killing curve with a large enough effect; inconclusive = small, poorly fitted or top-dose-only effect, or effect the other way, or another doubt; inactive = no such curve, though single readings can be large or run the other way. The full list was thinned out, with actives kept by preference.
The reply should name one outcome from active, inactive

Check out these entries, answers already filled in.
Compound | Label Value
COc1cc2c(cc1OC)CN(C(=O)c1cc(=O)c3ccccc3o1)CC2 | active
CCOc1ccc(CCNC(=O)COC(=O)c2ccc(C)c(S(=O)(=O)N3CCOCC3)c2)cc1OCC | inactive
COc1cc(OC)cc(C2=Cc3ccccc3C(CC(=O)c3ccco3)N2c2ccc(-c3cnc(OC)nc3)cc2)c1 (stereo not given) | inactive
O=C(Nc1cnn(Cc2ccc(Cl)cc2)c1)C1CCCC1 | inactive

Assay outcome for CCN(CC)C(=O)C1=C(C)N(Cc2ccc(OC)cc2)C(=O)C(CC(=O)NCc2ccco2)C1 (stereo not given) : what was it? inactive

# outcome recorded in this test, key = "Cc1cc(Br)cn2c(Cc3ccsc3)c(-c3ccc(C#N)cc3)nc12" inactive

How was CC1(C(=O)NS(=O)(=O)c2cccs2)CCN1C(=O)Cc1ccc(-c2ccccc2)cc1 (stereo not given) classified in this test? inactive

Status in this test for COc1ccccc1CC1(C)C(=O)Nc2ccc(OC(F)(F)F)cc21 (stereo not given) ? inactive

Answer briefly: the call reported for "O=C(NNC(=O)c1ccc(Cl)nc1)c1ccc(Br)cc1" in this assay. inactive

Could you please tell me the result logged for "COC(=O)[C@]12CCCCC=C1N(Cc1ccc3c(c1)OCO3)C(=O)[C@H](CC(=O)NCc1cccs1)C2" in this assay? inactive

I would be grateful if you could indicate the recorded call for CN(C)C1CN(Cc2cn(Cc3ccccc3)nn2)S(=O)(=O)C1 (stereo not given) . inactive

Just curious, what result did "NC(=O)CSc1nnc(-c2cccc(S(=O)(=O)N3CCOCC3)c2)o1" get here? inactive

Outcome logged for "C[C@H](O)[C@@H]1C(=O)N2CCc3c([nH]c4ccccc34)[C@@H]2C[C@@H]1N(C)C(=O)Nc1ccc(F)cc1" in this assay: inactive

====

- Protocol Description: qHTS for induction of synthetic lethality in tumor cells producing 2HG: qHTS for the HT-1080-IDH1KD cell line; also: potency is read from the fitted curve at half-maximal effect
- Conditions Used: HT-1080 IDH1 knockdown viability, ATP luminescence, 48 h; series mostly up to 46.1 µM
Out of some 360,000 compounds screened, about 7,500 (2.1%) were called active. Another 8% or so got no clear call; they are omitted. The list comes from a sample in which actives are over-represented; it also holds close analogues and randomly drawn compounds.
Measured Metric: Potency

Compound | Potency
COC(=O)C[C@H]1C=C[C@@H](NS(=O)(=O)c2ccc(C)cc2)[C@@H](CO)O1 | inactive
CC1(C(=O)O)CCCN(C(=O)/C=C/c2ccccc2)C1 (stereo unspecified) | inactive
C/C(=N/Nc1ccc(Cl)cc1)c1cnnc(-c2ccccc2)n1 | inactive
Cc1cccc(CN2CCN(C3CN(Cc4cn(Cc5cc(C)cc(C)c5)nn4)S(=O)(=O)C3)CC2)c1 (stereo unspecified) | inactive
COc1cc(CNc2ncnc3c2ncn3[C@H]2CN(Cc3cccs3)C[C@@H](CO)O2)cc(OC)c1OC | inactive

Any idea what its Potency is? The compound is "COc1ccc(NC(=O)c2sc(=O)n(Cc3ccc(S(=O)(=O)N(C)C)cc3)c2C)cc1" inactive

Recorded Potency of "Cc1ccc(S(=O)(=O)Nc2nc(N)n(-c3ccccc3)n2)cc1" , please. inactive

I'd like to know its Potency. The compound in question is "Cc1ccc(S(=O)(=O)Nc2nc(C)cc(-n3nc(C)cc3C)n2)cc1" 15.8 µM (active)

Recorded Potency for "O=C1C=C(c2ccc(Cl)cc2)C(=O)N1Nc1ccccc1" , please? 18.4 µM (active)
